molecules and their reported Kq (quenching rate constant)
Molecular target: pancreatic lipase (PL) (Sus scrofa)
Construct: lipase (porcine pancreas); purchased Shanghai Yuanye Co., Ltd., Shanghai, China; host or cells: porcine pancreas
Sequence (P00591 1-450): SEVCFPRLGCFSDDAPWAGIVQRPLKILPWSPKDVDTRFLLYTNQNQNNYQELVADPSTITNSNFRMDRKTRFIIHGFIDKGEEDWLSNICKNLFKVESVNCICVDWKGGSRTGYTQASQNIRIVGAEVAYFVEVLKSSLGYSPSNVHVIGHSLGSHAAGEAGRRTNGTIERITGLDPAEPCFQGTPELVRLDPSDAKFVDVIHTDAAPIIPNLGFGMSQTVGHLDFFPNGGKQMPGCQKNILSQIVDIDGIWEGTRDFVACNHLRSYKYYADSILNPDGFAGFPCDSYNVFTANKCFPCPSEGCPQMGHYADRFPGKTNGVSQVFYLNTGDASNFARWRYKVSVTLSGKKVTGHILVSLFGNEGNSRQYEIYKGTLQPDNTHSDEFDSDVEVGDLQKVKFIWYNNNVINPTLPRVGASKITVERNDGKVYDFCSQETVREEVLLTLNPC
Assay: Fluorescence quenching and binding interaction with PL (Stern-Volmer, double logarithmic, Van't Hoff)
Parameters: species or system porcine
Settings: T 304 K

Study these solved cases before continuing.
substance smiles	tested target	readout kind	observed result
O=C(O)c1ccc(-c2c3nc(c(-c4ccc(C(=O)O)cc4)c4ccc([nH]4)c(-c4ccc(C(=O)O)cc4)c4nc(c(-c5ccc(C(=O)O)cc5)c5ccc2[nH]5)C=C4)C=C3)cc1	pancreatic lipase (PL) (Sus scrofa)	Kq (quenching rate constant)	4.59 ± 0.06 ×10^12 L/mol/s
O=C([O-])c1ccc(C2=C3C=CC(=N3)C(c3ccc(C(=O)[O-])cc3)=C3C=CC(=N3)C(=c3ccc(=C([O-])[O-])cc3)c3ccc([n-]3)C(c3ccc(C(=O)[O-])cc3)=C3C=CC2=N3)cc1.[67Cu+2].[H+].[H+].[H+].[H+]	pancreatic lipase (PL) (Sus scrofa)	Kq (quenching rate constant)	2.33 ± 0.03 ×10^12 L/mol/s
Oc1ccc(-c2c3nc(c(-c4ccc(O)cc4)c4ccc([nH]4)c(-c4ccc(O)cc4)c4nc(c(-c5ccc(O)cc5)c5ccc2[nH]5)C=C4)C=C3)cc1	pancreatic lipase (PL) (Sus scrofa)	Kq (quenching rate constant)	1.17 ± 0.03 ×10^12 L/mol/s

Then there is this molecule:
QUERY: Value lookup for Kq (quenching rate constant); key = "Nc1ccc(-c2c3nc(c(-c4ccc(N)cc4)c4ccc([nH]4)c(-c4ccc(N)cc4)c4nc(c(-c5ccc(N)cc5)c5ccc2[nH]5)C=C4)C=C3)cc1"
RESULT: 8.80 ± 0.06 ×10^12 L/mol/s
